The entries below are paired with their reported pIC50.
# target-or-system: FL-SMARCA2 (full-length human SMARCA2 isoform 1) (Homo sapiens)
# Construct: FLAG tag (YKDDDDK) (C); made in house; host or cells: Sf21 insect cells (baculovirus, pFastBacI)
# protocol-details: SMARCA2 ATPase activity assay (ADP-Glo, chicken mononucleosome substrate)
# Format: biochemical
# setup-conditions: Table 3.1; ATPase assay, enzyme 5 nM, ATP 250 uM, chicken mononucleosome 10 nM, 30 min preincubation
pIC50: −log10 of the molar value.

chemical-smiles: O=C(Nc1cc(F)c(=O)n(CC(F)(F)F)c1)c1cnc(Cl)o1
comparison-symbol: <
pIC50: 4.30
--
chemical-smiles: O=C(Nc1cc(F)c(=O)n(CC(F)F)c1)c1cc(-c2nnco2)c(Cl)s1
comparison-symbol: =
pIC50: 5.54
--
chemical-smiles: CCn1cc(NC(=O)c2cc(Cl)n[nH]2)cc(F)c1=O
comparison-symbol: =
pIC50: 6.46
--
chemical-smiles: O=C(Nc1cc(F)c(=O)n(CCF)c1)c1c[nH]c(=O)s1
comparison-symbol: <
pIC50: 4.30
--
chemical-smiles: CCn1cc(NC(=O)c2cc(Cl)c(Cl)s2)ccc1=O
comparison-symbol: =
pIC50: 5.90

----------
# target-or-system: FL-SMARCA2 (full-length human SMARCA2 isoform 1) (Homo sapiens)
# Construct: FLAG tag (YKDDDDK) (C); made in house; host or cells: Sf21 insect cells (baculovirus, pFastBacI)
# protocol-details: SMARCA2 ATPase activity assay (ADP-Glo, chicken mononucleosome substrate)
# Assay type: biochemical
# setup-conditions: Table 3d.1; ATPase assay, enzyme 5 nM, ATP 250 uM, chicken mononucleosome 10 nM, 30 min preincubation; read-out: FL-SMARCA2 IC>50
pIC50: −log10 of the molar value.
Reported pIC50 values for a set of molecules

molecule: O=C(Nc1ccc(=O)n(CC(F)(F)F)n1)c1cc(Cl)c(Cl)s1 [Compound 21d]
comparison-symbol: =
pIC50: 4.78
//
molecule: CCn1cc(NC(=O)Nc2ccccn2)ccc1=O [Compound 17d]
comparison-symbol: <
pIC50: 4.30
//
molecule: O=C(Nc1cc(F)c(=O)n(CC(F)F)c1)c1cc(C#Cc2ccn(-c3ccccn3)c(=O)c2)c(Cl)s1 [Compound 97d]
comparison-symbol: =
pIC50: 5.57
//
molecule: O=C(Nc1cc(F)c(=O)n(CC(F)F)c1)c1cc(C#CC2CCO2)c(Cl)s1 (centres unmarked) [Compound 77d]
comparison-symbol: =
pIC50: 6.80
//
molecule: O=C(Nc1cc(F)c(=O)n(CC(F)F)c1)c1cc(Cl)on1 [Compound 44d]
comparison-symbol: =
pIC50: 4.53
//
molecule: N#Cc1cc(C(=O)Nc2cc(F)c(=O)n(CC3(F)CC3)c2)sc1C(F)(F)F [Compound 85d]
comparison-symbol: =
pIC50: 6.98
//
molecule: O=C(Nc1cc(F)c(=O)n(CC(F)F)c1)c1cc(C#Cc2ccc3nncn3c2)c(Cl)s1 [Compound 91d]
comparison-symbol: =
pIC50: 7.64
//
molecule: CCn1cc(NC(=O)c2cc(Cl)c(Cl)s2)c(F)cc1=O [Compound 31d]
comparison-symbol: =
pIC50: 4.32
//
molecule: O=C(CNCC1CC1)Nc1ccc(=O)n(Cc2ccccc2Cl)c1
comparison-symbol: =
pIC50: 4.65
//
molecule: N#Cc1cc(C(=O)Nc2cc(O)c(=O)n(CC(F)F)c2)sc1C(F)(F)F [Compound 88d]
comparison-symbol: =
pIC50: 6.24
//
molecule: CN1CCCC(C#Cc2cc(C(=O)Nc3cc(F)c(=O)n(CC(F)F)c3)sc2Cl)C1 (centres unmarked) [Compound 140d]
comparison-symbol: =
pIC50: 6.11

----------
# Test system: various lung cancer cell lines
# protocol-details: Long term proliferation (LTP) assay in various cancer cell lines
# Assay type: cell-based
# setup-conditions: RERFLCAI; SMARCA4 protein Absent; Lung NSCLC squamous cell carcinoma
pIC50: −log10 of the molar value.

compound: N#Cc1sc(C(=O)Nc2cc(F)c(=O)n(CCF)c2)cc1Cl
pIC50: 7.21
--
compound: O=C(Nc1cc(F)c(=O)n(CC(F)F)c1)c1cc(Cl)c(C(F)(F)F)s1
pIC50: 6.87
--
compound: N#Cc1cc(C(=O)Nc2cc(F)c(=O)n(CC(F)F)c2)sc1C(F)(F)F [Compound 82c]
pIC50: 7.59

----------
# Test system: various lung cancer cell lines
# protocol-details: Long term proliferation (LTP) assay in various cancer cell lines
# Assay type: cell-based
# setup-conditions: Homo sapiens, NCI-H358, NCIH358; SMARCA4 protein Present; Lung NSCLC bronchioloalveolar adenocarcinoma
# key: entry, value: IC50

compound: N#Cc1cc(C(=O)Nc2cc(F)c(=O)n(CC(F)F)c2)sc1C(F)(F)F [Compound 82c]
IC50 (µM): 1.7
//
compound: N#Cc1sc(C(=O)Nc2cc(F)c(=O)n(CCF)c2)cc1Cl [Compound 139]
IC50 (µM): 10
//
compound: O=C(Nc1cc(F)c(=O)n(CC(F)F)c1)c1cc(Cl)c(C(F)(F)F)s1 [Compound 298]
IC50 (µM): 10

----------
// reported log10 IC50 per item
# target-or-system: FL-SMARCA2 (full-length human SMARCA2 isoform 1) (Homo sapiens, UniProt P51531)
# Construct: FLAG tag (YKDDDDK) (C); made in house; host or cells: Sf21 insect cells (baculovirus, pFastBacI)
# Sequence (P51531 with tags, fused parts or gaps): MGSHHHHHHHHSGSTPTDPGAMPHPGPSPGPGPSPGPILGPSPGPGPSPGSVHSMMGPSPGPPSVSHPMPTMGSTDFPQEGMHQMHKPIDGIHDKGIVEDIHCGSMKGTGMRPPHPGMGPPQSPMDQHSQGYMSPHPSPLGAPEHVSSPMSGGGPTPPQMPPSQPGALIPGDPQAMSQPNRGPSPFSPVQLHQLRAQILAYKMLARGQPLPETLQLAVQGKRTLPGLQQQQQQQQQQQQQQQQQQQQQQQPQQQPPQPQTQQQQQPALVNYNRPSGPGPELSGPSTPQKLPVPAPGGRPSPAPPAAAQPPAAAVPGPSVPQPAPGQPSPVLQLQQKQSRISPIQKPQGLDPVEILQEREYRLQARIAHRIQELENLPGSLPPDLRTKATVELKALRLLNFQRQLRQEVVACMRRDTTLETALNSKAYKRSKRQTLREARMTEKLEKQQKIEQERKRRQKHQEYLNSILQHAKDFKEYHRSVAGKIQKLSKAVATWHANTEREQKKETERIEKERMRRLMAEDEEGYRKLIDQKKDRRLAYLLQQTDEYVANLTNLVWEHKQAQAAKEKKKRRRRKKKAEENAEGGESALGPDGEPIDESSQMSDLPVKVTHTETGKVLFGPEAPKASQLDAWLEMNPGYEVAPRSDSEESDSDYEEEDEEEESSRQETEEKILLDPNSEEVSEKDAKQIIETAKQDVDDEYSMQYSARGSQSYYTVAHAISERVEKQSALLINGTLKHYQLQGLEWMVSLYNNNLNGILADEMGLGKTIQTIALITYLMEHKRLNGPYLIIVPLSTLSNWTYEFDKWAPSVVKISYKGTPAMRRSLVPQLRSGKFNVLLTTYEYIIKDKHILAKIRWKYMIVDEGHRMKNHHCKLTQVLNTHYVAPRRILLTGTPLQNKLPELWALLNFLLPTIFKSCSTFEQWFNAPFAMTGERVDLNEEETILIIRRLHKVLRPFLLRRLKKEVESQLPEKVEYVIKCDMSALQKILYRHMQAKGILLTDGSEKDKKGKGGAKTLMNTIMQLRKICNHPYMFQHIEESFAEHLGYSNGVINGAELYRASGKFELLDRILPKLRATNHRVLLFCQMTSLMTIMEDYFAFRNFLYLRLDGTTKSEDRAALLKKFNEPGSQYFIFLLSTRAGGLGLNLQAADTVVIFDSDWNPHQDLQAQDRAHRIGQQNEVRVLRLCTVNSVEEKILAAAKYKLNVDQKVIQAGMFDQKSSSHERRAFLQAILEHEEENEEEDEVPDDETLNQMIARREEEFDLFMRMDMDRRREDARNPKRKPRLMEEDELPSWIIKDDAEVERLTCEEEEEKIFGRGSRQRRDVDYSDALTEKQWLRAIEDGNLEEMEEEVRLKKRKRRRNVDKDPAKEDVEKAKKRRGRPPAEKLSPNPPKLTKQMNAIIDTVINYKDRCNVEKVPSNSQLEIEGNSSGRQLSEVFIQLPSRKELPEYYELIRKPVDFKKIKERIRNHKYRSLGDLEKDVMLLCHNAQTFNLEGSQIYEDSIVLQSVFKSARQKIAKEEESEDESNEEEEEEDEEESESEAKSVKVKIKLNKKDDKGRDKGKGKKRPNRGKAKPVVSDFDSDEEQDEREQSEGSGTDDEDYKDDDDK
# protocol-details: SMARCA2 ATPase activity assay (ADP-Glo, chicken mononucleosome substrate)
# Format: biochemical
# setup-conditions: Table 3.1; ATPase assay, enzyme 5 nM, ATP 250 uM, chicken mononucleosome 10 nM, 30 min preincubation
# Protocol: Molecular Biology: Full-length human SMARCA2 isoform 1 (P51531) transcript clone was amplified from a cDNA library incorporating an N-terminal HIS tag ([…]) fused directly to Ser2 of SMARCA2 and a C-FLAG tag (YKDDDDK) fused directly to Glu1590 of SMARCA2. […] Expressed full-length SMARCA2 was purified from cell paste by FLAG affinity chromatography followed by anion exchange chromatography. […] The purity of the protein was measured as 74% using micro-capillary based gel electrophoresis.
metric: log10 IC50 (log10 of the value in µM)

chemical-smiles: O=C(Nc1cc(F)c(=O)n(CCF)c1)c1cnc([N+](=O)[O-])s1
log10 IC50: -0.42
//
chemical-smiles: O=C(Nc1cc(F)c(=O)n(CCF)c1)c1cc(Cl)c(C#CCN2CCCC2)s1
log10 IC50: 1.46
//
chemical-smiles: N#Cc1cc(C(=O)Nc2ccc(=O)n(CC(F)(F)F)c2)sc1C#N
log10 IC50: -0.97
//
chemical-smiles: O=C(Nc1cc(F)c(=O)n(CC(F)F)c1)c1cc(F)c(C(F)F)s1
log10 IC50: -1.45
//
chemical-smiles: Cn1nc(C#N)cc1C(=O)Nc1cc(F)c(=O)n(CCF)c1
log10 IC50: 0.21
//
chemical-smiles: Cn1c(C(=O)Nc2cc(Cl)c(=O)n(CCF)c2)cc(Cl)c1Cl
log10 IC50: -0.83
//
chemical-smiles: N#Cc1cc(C(=O)Nc2cc(F)c(=O)n(CCF)c2)[nH]n1
log10 IC50: -1.26
//
chemical-smiles: O=C(Nc1cc(F)c(=O)n(CC(F)F)c1)c1cnc(C(F)(F)F)s1
log10 IC50: -1.12
//
chemical-smiles: O=C(Nc1ccc(=O)n(CC(F)F)c1)c1cc(Cl)c(Cl)s1
log10 IC50: -0.65
//
chemical-smiles: O=C(Nc1cc(F)c(=O)n(CCF)c1)c1cc(CO)c(Cl)s1
log10 IC50: 1.37
//
chemical-smiles: Cn1c(C(=O)Nc2ccc(=O)n(CC(F)(F)F)c2)cc(Cl)c1Cl
log10 IC50: 0.17
//
chemical-smiles: CCn1cc(NC(=O)c2cc(Cl)c(Cl)s2)cc(C)c1=O
log10 IC50: 1.44

----------
Catalogue of log10 IC50 readings, one per entry.
# target-or-system: FL-SMARCA2 (full-length human SMARCA2 isoform 1) (Homo sapiens, UniProt P51531)
# Construct: FLAG tag (YKDDDDK) (C); made in house; host or cells: Sf21 insect cells (baculovirus, pFastBacI)
# protocol-details: SMARCA2 ATPase activity assay (ADP-Glo, chicken mononucleosome substrate)
# Type: biochemical
# setup-conditions: Table 3.1; ATPase assay, enzyme 5 nM, ATP 250 uM, chicken mononucleosome 10 nM, 30 min preincubation
metric: log10 IC50 (log10 of the value in nM)

chemical-smiles: CCn1cc(NC(=O)c2cc(Cl)c(C#N)s2)cc(F)c1=O
target-or-system: FL-SMARCA2 (full-length human SMARCA2 isoform 1) (Homo sapiens, UniProt P51531)
reported-result: 1.90
--
chemical-smiles: Cn1c(C(=O)Nc2cc(Cl)c(=O)n(CCF)c2)cc(Cl)c1C#N
target-or-system: FL-SMARCA2 (full-length human SMARCA2 isoform 1) (Homo sapiens, UniProt P51531)
reported-result: 2.29
--
chemical-smiles: Cn1c(C(=O)Nc2cc(Cl)c(=O)n(CC(F)(F)F)c2)cc(Cl)c1Cl
target-or-system: FL-SMARCA2 (full-length human SMARCA2 isoform 1) (Homo sapiens, UniProt P51531)
reported-result: 2.47
--
chemical-smiles: Cn1cc(NC(=O)c2cc(Cl)c(Cl)s2)cc(Cl)c1=O
target-or-system: FL-SMARCA2 (full-length human SMARCA2 isoform 1) (Homo sapiens, UniProt P51531)
reported-result: 4.49
--
chemical-smiles: CCn1cc(NC(=O)c2cc(C#CCN(C)C)c(Cl)s2)ccc1=O
target-or-system: FL-SMARCA2 (full-length human SMARCA2 isoform 1) (Homo sapiens, UniProt P51531)
reported-result: 3.98
--
chemical-smiles: Cn1c(C(=O)Nc2cc(F)c(=O)n(CC(F)(F)F)c2)cc(Cl)c1Cl
target-or-system: FL-SMARCA2 (full-length human SMARCA2 isoform 1) (Homo sapiens, UniProt P51531)
reported-result: 2.39
--
chemical-smiles: O=C(Nc1ccc(=O)n(CCF)c1)c1cc(Cl)c(Cl)s1
target-or-system: FL-SMARCA2 (full-length human SMARCA2 isoform 1) (Homo sapiens, UniProt P51531)
reported-result: 2.32
--
chemical-smiles: N#Cc1cc(C(=O)Nc2cc(F)c(=O)n(CCF)c2)oc1C#N
target-or-system: FL-SMARCA2 (full-length human SMARCA2 isoform 1) (Homo sapiens, UniProt P51531)
reported-result: 3.13
--
chemical-smiles: CCn1cc(NC(=O)c2cc(Cl)c(C#N)s2)ccc1=O
target-or-system: FL-SMARCA2 (full-length human SMARCA2 isoform 1) (Homo sapiens, UniProt P51531)
reported-result: 2.56
--
chemical-smiles: O=C(Nc1ccc(=O)n(CCO)c1)c1cc(Cl)c(Cl)s1
target-or-system: FL-SMARCA2 (full-length human SMARCA2 isoform 1) (Homo sapiens, UniProt P51531)
reported-result: 4.32
--
chemical-smiles: N#Cc1[nH]c(C(=O)Nc2cc(Cl)c(=O)n(CC(F)(F)F)c2)cc1Cl
target-or-system: FL-SMARCA2 (full-length human SMARCA2 isoform 1) (Homo sapiens, UniProt P51531)
reported-result: 2.30
--
chemical-smiles: N#Cc1cc(C(=O)Nc2cc(F)c(=O)n(CCF)c2)sc1Cl
target-or-system: FL-SMARCA2 (full-length human SMARCA2 isoform 1) (Homo sapiens, UniProt P51531)
reported-result: 1.58
--
chemical-smiles: O=C(Nc1cc(F)c(=O)n(CCF)c1)c1cc(F)c(Cl)s1
target-or-system: FL-SMARCA2 (full-length human SMARCA2 isoform 1) (Homo sapiens, UniProt P51531)
reported-result: 1.18
--
chemical-smiles: CCn1cc(NC(=O)c2cc(Cl)c(Cl)n2C)cc(Cl)c1=O
target-or-system: FL-SMARCA2 (full-length human SMARCA2 isoform 1) (Homo sapiens, UniProt P51531)
reported-result: 2.54
--
chemical-smiles: CCn1cc(NC(=O)c2cc(C#CCN)c(Cl)s2)ccc1=O
target-or-system: FL-SMARCA2 (full-length human SMARCA2 isoform 1) (Homo sapiens, UniProt P51531)
reported-result: 3.83
--
chemical-smiles: O=C(Nc1cc(F)c(=O)n(CCF)c1)c1cc(Cl)c(Cl)s1
target-or-system: FL-SMARCA2 (full-length human SMARCA2 isoform 1) (Homo sapiens, UniProt P51531)
reported-result: 1.71
--
chemical-smiles: CCn1cc(NC(=O)c2cc(Cl)ns2)ccc1=O
target-or-system: FL-SMARCA2 (full-length human SMARCA2 isoform 1) (Homo sapiens, UniProt P51531)
reported-result: 4.56
